# maps each entry to its IC50
target: UniProt O14757; test: CHK1 inhibitory activity test (IMAP TR-FRET); format: biochemical

These solved cases illustrate the format of a correct answer.
COc1ncnc(OCCCN)c1-c1cc(Nc2cnc(C#N)cn2)n[nH]1
300 pM
COc1ccnc(OCCCN)c1-c1cc(Nc2cnc(C#N)cn2)n[nH]1
< 100 pM

// next entry
Lab book: IC50 of `COc1nccc(OCC2(CO)CNC2)c1-c1cc(Nc2cnc(C#N)cn2)n[nH]1` noted as < 100 pM

----------
molecular target: hERG current (Homo sapiens (Human)); assay: hERG current blocking test; conditions: read-out: hERG inhibition IC50; hERG stably expressing CHO cells, Qube384
Sequence (Q12809 whole entry): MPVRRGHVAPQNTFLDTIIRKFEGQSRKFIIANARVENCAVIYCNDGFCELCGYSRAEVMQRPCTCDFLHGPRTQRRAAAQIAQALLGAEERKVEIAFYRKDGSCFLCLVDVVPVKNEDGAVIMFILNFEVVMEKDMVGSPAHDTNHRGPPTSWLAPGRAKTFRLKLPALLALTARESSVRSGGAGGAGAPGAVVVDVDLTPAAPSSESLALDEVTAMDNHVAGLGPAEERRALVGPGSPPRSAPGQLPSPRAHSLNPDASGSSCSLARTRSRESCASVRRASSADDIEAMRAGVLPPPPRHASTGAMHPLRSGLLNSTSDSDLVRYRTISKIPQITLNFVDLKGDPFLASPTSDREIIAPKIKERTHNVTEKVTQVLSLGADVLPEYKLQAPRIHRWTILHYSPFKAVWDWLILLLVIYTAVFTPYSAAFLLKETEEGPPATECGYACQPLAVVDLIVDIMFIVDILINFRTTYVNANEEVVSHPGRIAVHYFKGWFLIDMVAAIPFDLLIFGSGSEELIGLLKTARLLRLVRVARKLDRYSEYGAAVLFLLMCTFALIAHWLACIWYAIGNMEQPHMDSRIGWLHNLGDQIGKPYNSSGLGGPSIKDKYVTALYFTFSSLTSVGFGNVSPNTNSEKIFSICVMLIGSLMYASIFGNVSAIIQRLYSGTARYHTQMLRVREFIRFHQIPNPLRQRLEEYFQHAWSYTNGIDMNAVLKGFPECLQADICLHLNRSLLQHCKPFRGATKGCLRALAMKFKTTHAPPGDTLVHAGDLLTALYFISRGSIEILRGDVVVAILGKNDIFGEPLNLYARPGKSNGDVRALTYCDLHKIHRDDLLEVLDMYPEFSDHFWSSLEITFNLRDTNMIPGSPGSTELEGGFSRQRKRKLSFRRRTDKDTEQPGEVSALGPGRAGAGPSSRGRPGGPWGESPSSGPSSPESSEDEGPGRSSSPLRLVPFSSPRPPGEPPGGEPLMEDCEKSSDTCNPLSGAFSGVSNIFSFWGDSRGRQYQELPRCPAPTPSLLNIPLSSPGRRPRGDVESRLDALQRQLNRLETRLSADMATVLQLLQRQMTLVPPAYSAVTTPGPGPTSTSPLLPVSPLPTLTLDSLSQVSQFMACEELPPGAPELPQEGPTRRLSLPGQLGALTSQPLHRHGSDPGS
# maps each entry to its IC50

COc1ccnc(OCCCN)c1-c1cc(Nc2cnc(C(F)(F)F)cn2)n[nH]1
< 2700 nM
COc1ccnc(OCC2(CN)CC2)c1-c1cc(Nc2cnc(C#N)cn2)n[nH]1
< 2700 nM
COc1cncc(OC[C@H]2CNCCO2)c1-c1cc(Nc2cnc(C#N)cn2)n[nH]1 (stereo in doubt)
< 2700 nM

// next entry
Lab book: IC50 of `COc1nccc(OCC2(CO)CNC2)c1-c1cc(Nc2cnc(C#N)cn2)n[nH]1` noted as > 100000 nM

----------
biological target: UniProtKB Q12809; test: in vitro; details: CHO cells stably expressing hERG
test_readout: selectivity ratio

Lab book: selectivity ratio of `COc1nccc(OCC2(CO)CNC2)c1-c1cc(Nc2cnc(C#N)cn2)n[nH]1` noted as ≥ 100000

----------
target: hERG current (Homo sapiens (Human)); assay: hERG current blocking test; conditions: IC50 of hERG divided by IC50 of CHK1 inhibition of Test Example 1
test_readout: hERG/CHK1
Give your answer as a number; write no unit.

COc1cncc(OC[C@@H]2CNCCO2)c1-c1cc(Nc2cnc(C#N)cn2)n[nH]1 (stereo in doubt)
9118

Lab book: hERG/CHK1 of `COc1cncc(OC[C@]2(F)CCNC2)c1-c1cc(Nc2cnc(C#N)cn2)n[nH]1` noted as 11176

----------
target: CHK1 (Homo sapiens (Human), UniProt O14757); experiment: CHK1/CHK2 selectivity test (LabChip mobility shift); format: biochemical; settings: read-out: IC50 value with respect to CHK1
Sequence (O14757 whole entry): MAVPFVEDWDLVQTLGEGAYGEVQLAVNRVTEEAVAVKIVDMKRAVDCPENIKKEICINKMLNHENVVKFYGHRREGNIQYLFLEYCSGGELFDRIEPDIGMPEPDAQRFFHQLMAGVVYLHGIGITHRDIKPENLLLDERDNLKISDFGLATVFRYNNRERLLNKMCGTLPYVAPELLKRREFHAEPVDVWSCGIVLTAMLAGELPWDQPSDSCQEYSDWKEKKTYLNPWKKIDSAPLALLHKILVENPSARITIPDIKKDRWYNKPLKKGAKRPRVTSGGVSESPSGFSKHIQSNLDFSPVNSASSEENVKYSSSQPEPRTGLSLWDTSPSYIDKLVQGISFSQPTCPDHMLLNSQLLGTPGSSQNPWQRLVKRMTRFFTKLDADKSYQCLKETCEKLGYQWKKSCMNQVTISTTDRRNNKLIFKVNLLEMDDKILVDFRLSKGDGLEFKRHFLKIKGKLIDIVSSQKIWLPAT
pIC50: −log10 of the molar value.
test_readout: pIC50

Recorded pIC50 for `COc1ccnc(OCCCN)c1-c1cc(Nc2cnc(C#N)cn2)n[nH]1` on CHK1 (Homo sapiens (Human), UniProt O14757) was > 9.52

----------
biological target: CHK1 (Homo sapiens (Human)); assay: CHK1 inhibitory activity test (IMAP TR-FRET); assay type: biochemical; conditions: read-out: CHK1 inhibition % at 0.1 nM
Output satisfied for inhibition at 0.0001 µM not less than 20%; output not satisfied otherwise.

// known answers, use as guide
COc1cncc(OC[C@@H](C)CN)c1-c1cc(Nc2cnc(C#N)cn2)n[nH]1
not satisfied
COc1cncc(OCC2(CN)CC2)c1-c1cc(Nc2cnc(C#N)cn2)n[nH]1
satisfied

**Q:** Is the recorded value of inhibition at 0.0001 µM equal to or greater than 20% for this compound? `CN[C@@H]1CC[C@@H](Oc2cncc(OC)c2-c2cc(Nc3cnc(C#N)cn3)n[nH]2)C1`
**A:** not satisfied

**Q:** Is the recorded value of inhibition at 0.0001 µM equal to or greater than 20% for this compound? `COc1cncc(O[C@H](C)C2CNC2)c1-c1cc(Nc2cnc(C#N)cn2)n[nH]1`
**A:** not satisfied

**Q:** Is the recorded value of inhibition at 0.0001 µM equal to or greater than 20% for this compound? `COc1nccc(OCC2(O)CNC2)c1-c1cc(Nc2cnc(C#N)cn2)n[nH]1`
**A:** satisfied
